# melting point per record follows

# annotated cases, reported melting point shown
COc1cc(CNC(=O)CCc2oc(-n3cnc4ccccc43)nc2-c2ccc(Cl)cc2)cc(OC)c1OC: 169 to 170 °C
NC(=O)CCc1oc(Oc2ccccc2)nc1-c1ccc(Cl)cc1: 139 to 140 °C

What does the record list as melting point for O=C(CCc1oc(-n2cnc3ccccc32)nc1-c1ccc(Cl)cc1)Nc1cccc(CO)c1 ?
206 to 207 °C
